PROCEDURE TEXT: chemical genetic growth profiling, strain panel (AID 1159580);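 further: tested at 20 µM; growth read once vehicle control cultures reached saturation at 30 °C; 1 = growth at the plate median or of vehicle wells; lower values mean less growth of the strain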
CONDITION DESCRIPTION: S. cerevisiae deletion strains, growth OD, locus YDL101C, strain DUN1, hits give low values
In all, about 5,500 compounds went through this assay and about 2,000 (36%) were called active. Roughly 18% stayed inconclusive and do not appear here. The list shows a part of the results.
MEASURE: normalized growth
Give bare numbers.

COC(=O)C1=C(C)NC(C)=C(C(=O)OC)C1c1ccc(Cl)cc1Cl: 0.973
Cc1c(-c2ccnc(N)n2)nnn1-c1ccc(Cl)cc1Cl: 0.981
O=C(OC1Cc2c(O)cc(O)cc2OC1c1cc(O)c(O)c(O)c1-c1c(C2Oc3cc(O)cc(O)c3CC2OC(=O)c2cc(O)c(O)c(O)c2)cc(O)c(O)c1O)c1cc(O)c(O)c(O)c1 (centres undefined): 1
CN1C2CCC1CC(=NO)C2: 1.02
O=C(O[C@@H]1Cc2c(O)cc(O)cc2O[C@@H]1c1cc(O)c(O)c(O)c1-c1c([C@H]2Oc3cc(O)cc(O)c3C[C@H]2O)cc(O)c(O)c1O)c1cc(O)c(O)c(O)c1: 0.113
COc1cccc(C2C3=C(CC(C)(C)CC3=O)OC3=C2C(=O)CC(C)(C)C3)c1O: 1.01
CCOC(=O)C1=C(N)OC2=C(C(=O)CC(C)(C)C2)C1c1ccc(Cl)cc1Cl (centres undefined): 0.966
O=C1CSC(c2cccnc2)N1c1ccc(Cl)cc1Cl (centres undefined): 1

Switching to the query record.
Report normalized growth, nothing else, for this compound: O=c1c(Cl)c(-n2cccn2)cnn1-c1ccc(Cl)cc1Cl
0.985

----------
PROCEDURE TEXT: chemical genetic growth profiling, strain panel (AID 1159580)
CONDITION DESCRIPTION: S. cerevisiae deletion strains, growth OD, locus YDR392W, strain spt3
Out of some 5,500 compounds screened, about 2,000 (36%) were called active. Roughly 18% stayed inconclusive and do not appear here. No stated cut-off is given here; in the data, active means normalized growth mostly below about 0.91 (no sharp cut-off); inconclusive means no clear call, values can overlap the other calls; inactive means mostly above about 0.92. This is one part of the list.
Select the matching outcome among label 1 = active, label 0 = inactive

Observe how each entry below is paired with its result.
C=C[C@@H](C1=CC(=O)C(OC)=C(OC)C1=O)c1ccccc1: label 1
CC(=O)c1c(O)c(C)c(O)c2c1OC1=CC(=O)C(C(C)=O)C(=O)C12C (stereo unspecified): label 1
C=CC(C1=CC(=O)C(OC)=CC1=O)c1ccc(OC)cc1 (stereo unspecified): label 1
C1CCN2CC3CC(CN4CCCCC34)C2C1 (stereo unspecified): label 0

Just curious, what result did CC(=O)Nc1ccc(S(=O)(=O)c2ccc(NC(C)=O)cc2)cc1 get here?
label 0

Recorded test outcome, item O=C1CCCC2C3CC(CN12)[C@@H]1CCCCN1C3 (stereo partly specified)
label 0

----------
PROCEDURE TEXT: chemical genetic growth profiling, strain panel (AID 1159580)
CONDITION DESCRIPTION: S. cerevisiae deletion strains, growth OD, locus YAL013W, strain DEP1
The whole screen tested about 5,500 compounds, of which about 2,000 (36%) were called active. Another 18% or so got no clear call; they are omitted. No stated cut-off is given here; in the data, active means normalized growth mostly below about 0.91 (no sharp cut-off); inconclusive means no clear call, values can overlap the other calls; inactive means mostly above about 0.92. Some of the results follow.
A correct response names exactly one class from t (active), f (inactive)

Completed entries (count: 5):
O=C(O)C1=CCNCC1: f
O=C(O)CCCCC1CCSS1 (stereo unspecified): f
CN(/N=C\c1ccccc1)c1ncc(C(F)(F)F)cc1Cl: f
C=C(C)C1CC=C(C(=O)O)CC1 (stereo unspecified): f
COc1cc(CNC(=O)CCCCCCC(C)C)ccc1O: f

Continue with the compound presented below.
Returns: the outcome recorded for O=C(O[C@@H]1Cc2c(O)cc(O)cc2O[C@@H]1c1cc(O)c(O)c(O)c1-c1c([C@H]2Oc3cc(O)cc(O)c3C[C@H]2O)cc(O)c(O)c1O)c1cc(O)c(O)c(O)c1 in this assay.
t

----------
PROCEDURE TEXT: chemical genetic growth profiling, strain panel (AID 1159580)
CONDITION DESCRIPTION: S. cerevisiae deletion strains, growth OD, locus YMR223W, strain ubp8, hits give low values
The campaign covered roughly 5,500 compounds. About 2,000 (36%) were called active. Roughly 18% stayed inconclusive and do not appear here. The list shows a part of the results.
MEASURE: normalized growth
One number for each entry.

Sample records with normalized growth:
CCCCC1=NC2(CCCC2)C(=O)N1Cc1ccc(-c2ccccc2-c2nn[nH]n2)cc1: 0.957
CC(Cc1ccc(O)c(O)c1)C(C)Cc1ccc(O)c(O)c1 (configuration not stated): 0.91
CCCCC1(COC(=O)CCC(=O)O)C(=O)N(c2ccccc2)N(c2ccccc2)C1=O: 1.01
O=C(O)/C=C/C=C/c1ccccc1: 0.934
CN[C@H](CC(=O)O)C(=O)O: 0.937

State the recorded normalized growth for every item in the following list.
1. C[C@H]1[C@H]2CCC3C4CC=C5C[C@@H](N(C)C)CC[C@]5(C)C4CC[C@@]32CN1C (some centres not stated)
2. N[C@@H](Cc1ccc(O)c(O)c1)C(=O)O
3. Nc1ccc(S(=O)(=O)Nc2ccccn2)cc1
4. CNc1ccccc1C(=O)O
5. CC(=O)O[C@H]1C[C@@H](OC(C)=O)C(C)(C)C2C[C@@H](OC(C)=O)[C@@]3(C)C4=CC(=O)O[C@@H](c5ccoc5)[C@]4(C)CCC3[C@]21C (some centres not stated)
6. O=C(O)c1cccnc1Nc1cccc(C(F)(F)F)c1
7. O=C1O[C@H](C(O)CO)C(O)=C1O (some centres not stated)

1: 0.972; 2: 1.01; 3: 1.01; 4: 1.01; 5: 0.988; 6: 0.958; 7: 0.982

----------
PROCEDURE TEXT: chemical genetic growth profiling, strain panel (AID 1159580);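 further: tested at 20 µM; growth read once vehicle control cultures reached saturation at 30 °C; 1 = growth at the plate median or of vehicle wells; lower values mean less growth of the strain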
CONDITION DESCRIPTION: S. cerevisiae deletion strains, growth OD, locus YJL129C, strain trk1, hits give low values
The campaign covered roughly 5,500 compounds. About 2,000 (36%) were called active. About 18% were inconclusive and are not listed. Some of the results follow.
MEASURE: normalized growth

Use these answered entries as a reference point.
O=c1[nH]c(=O)n(C2C[C@@H](O)[C@@H](CO)O2)cc1F (stereo partly specified): 0.963 (inactive)
N[C@@H](Cc1ccc(O)c(O)c1)C(=O)O: 1 (inactive)
CC(C)(C)NC[C@@H](O)COc1nsnc1N1CCOCC1: 1.02 (inactive)
Nc1ncnc2c1ncn2[C@@H]1O[C@H](CO)[C@@H](O)[C@H]1O: 0.972 (inactive)
CCCCC1=NC2(CCCC2)C(=O)N1Cc1ccc(-c2ccccc2-c2nn[nH]n2)cc1: 1.01 (inactive)

In the following, a different compound is considered.
Look up normalized growth of C[n+]1cccc(C(=O)[O-])c1 and report it.
0.936 (inactive)

----------
PROCEDURE TEXT: chemical genetic growth profiling, strain panel (AID 1159580);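 further: tested at 20 µM; growth read once vehicle control cultures reached saturation at 30 °C; 1 = growth at the plate median or of vehicle wells; lower values mean less growth of the strain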
CONDITION DESCRIPTION: S. cerevisiae deletion strains, growth OD, locus YNL271C, strain bni1, hits give low values
Among all 5,500 compounds or so, about 2,000 (36%) were called active. Not shown: some 18% with an inconclusive outcome. This is one part of the list.
Record form. Attribute: normalized growth. Fill in for each entry.
Numbers only.

Known normalized growth results, listed for orientation:
CC(C)(C)NC[C@@H](O)COc1nsnc1N1CCOCC1: 0.985
Nc1nc2ncc(C(=O)O)nc2c(=O)[nH]1: 1.03
NC(=NCCC[C@H](N)C(=O)O)NC(CCC(=O)O)C(=O)O (stereo partly drawn): 0.999
CC1(C)CC2C1(O)CCC1(C)C=CC(O)C21CO (stereo not drawn): 0.973
O[N+]1=CC=CCC1=S.On1ccccc1=S.[Zn]: 0.074

Report normalized growth for every entry below.
1. O=C(O)CF
2. Oc1ccc(Cl)c2cccnc12
3. N[C@@H](Cc1ccc(O)c(O)c1)C(=O)O
4. O=C(O)/C=C/C=C/c1ccccc1
5. C[n+]1cccc(C(=O)[O-])c1

1: 0.985; 2: 0.0769; 3: 0.987; 4: 0.772; 5: 1

// for each compound in input: emit normalized growth
1. O=C(CCCCCCCCCCCCC1CCCC1)Nc1ccc(S(=O)(=O)c2ccc(NC(=O)CCCCCCCCCCCCC3CCCC3)cc2)cc1
2. Oc1c(Cl)cc(Cl)c2cccnc12
3. CC1(C)C(C(Cl)Cl)C2(Cl)C(Cl)C(Cl)C1(Cl)C2(Cl)Cl (stereo not drawn)

0.998
0.0672
0.975

----------
PROCEDURE TEXT: chemical genetic growth profiling, strain panel (AID 1159580);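 further: tested at 20 µM; growth read once vehicle control cultures reached saturation at 30 °C; 1 = growth at the plate median or of vehicle wells; lower values mean less growth of the strain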
CONDITION DESCRIPTION: S. cerevisiae deletion strains, growth OD, locus YKR001C, strain vps1
Hit rate of the full screen: of about 5,500 compounds, about 2,000 (36%) were called active. Roughly 18% stayed inconclusive and do not appear here. Rule as the data show it: active = normalized growth mostly below about 0.91 (no sharp cut-off); inconclusive = no clear call, values can overlap the other calls; inactive = mostly above about 0.92. The list shows a part of the results.
A correct response names exactly one class from active, inactive

CCCC(C)C1(CC)C(=O)N=C(S)NC1=O (stereo not given): active

For C/C=C/c1ccc2c(c1)OCO2 , which call appears in the assay record?
inactive

Recorded test outcome, item C=CCC1(C(C)CCC)C(=O)N=C(S)NC1=O (stereo not given)
inactive

Hello, I am checking results. What call was entered for CC1(C)CC2C1(O)CCC1(C)C=CC(O)C21CO (stereo not given) ?
inactive

Could you kindly confirm the outcome this assay logged for CC(=O)O[C@@H]1CC2C(C)(C)C=CC(=O)[C@]2(C)C2CC[C@@]3(C)[C@H](c4ccoc4)OC(=O)C4OC43[C@@]21C (stereo not given in full) ?
inactive

Please share the test call associated with CCCC(C)C1(CC)C(=O)NC(=O)NC1=O (stereo not given) .
inactive

Hi team, can someone confirm the assay call for O[N+]1=CC=CCC1=S.On1ccccc1=S.[Zn] ?
active

Hey, what did the test say about CC(=O)O[C@@H]1C[C@@]2(C)[C@H](c3ccoc3)C[C@H]3O[C@]32[C@]2(C)C(=O)C(O)=C3C(C)(C)C(=O)C=C[C@]3(C)C12 (stereo not given in full) ?
active

Field: outcome | Entry: CC(C)(C)NC[C@@H](O)COc1nsnc1N1CCOCC1
inactive

// param item: CC1(C)C(O)CC(O)C2(C)C1CC(O)C1(C)C2CCC2(C)C(c3ccoc3)CC3OC321 (stereo not given) ; yields the recorded call
inactive
